The values you see were collected from ChEMBL document CHEMBL1139595.

Molecular target: Inhibitor of nuclear factor kappa-B kinase subunit beta (Homo sapiens)
Sequence (O14920 whole entry): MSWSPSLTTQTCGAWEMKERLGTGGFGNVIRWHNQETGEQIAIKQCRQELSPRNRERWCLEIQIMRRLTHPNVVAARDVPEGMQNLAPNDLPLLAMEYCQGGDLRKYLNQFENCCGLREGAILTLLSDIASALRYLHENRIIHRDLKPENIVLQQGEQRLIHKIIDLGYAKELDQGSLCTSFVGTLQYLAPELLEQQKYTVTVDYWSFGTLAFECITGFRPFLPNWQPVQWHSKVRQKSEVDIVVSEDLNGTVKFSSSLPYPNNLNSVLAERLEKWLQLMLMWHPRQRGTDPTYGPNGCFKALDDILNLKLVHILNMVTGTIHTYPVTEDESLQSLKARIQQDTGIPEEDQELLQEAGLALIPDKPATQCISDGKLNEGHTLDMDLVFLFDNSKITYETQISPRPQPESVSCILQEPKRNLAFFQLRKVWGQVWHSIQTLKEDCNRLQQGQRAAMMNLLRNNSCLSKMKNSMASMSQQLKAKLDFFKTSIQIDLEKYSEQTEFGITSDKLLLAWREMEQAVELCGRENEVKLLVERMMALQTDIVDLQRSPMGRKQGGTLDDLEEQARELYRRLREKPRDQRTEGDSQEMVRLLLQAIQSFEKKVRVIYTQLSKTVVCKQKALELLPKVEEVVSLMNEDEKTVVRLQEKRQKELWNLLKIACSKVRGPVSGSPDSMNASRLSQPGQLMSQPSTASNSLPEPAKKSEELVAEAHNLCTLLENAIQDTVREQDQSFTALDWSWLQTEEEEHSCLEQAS
Assay: Inhibitory concentration against human recombinant I-kappa-B-kinase 2 from 3 experiments
// assign t if IC50 falls strictly below 600 nM, else f (ties count as f)

**Q:** For N#Cc1cc(C#Cc2cc(C(N)=O)c(NC(N)=O)s2)cs1 , is the recorded IC50 below the cut-off of 600 nM?
**A:** t

**Q:** For NC(=O)Nc1sc(C#Cc2cccc(NC(=O)c3ccccn3)c2)cc1C(N)=O , is the recorded IC50 below the cut-off of 600 nM?
**A:** f

**Q:** For NC(=O)Nc1sc(C#Cc2cccc(F)c2)cc1C(N)=O , is the recorded IC50 below the cut-off of 600 nM?
**A:** t

**Q:** For NC(=O)Nc1sc(C#Cc2ccsc2)cc1C(N)=O , is the recorded IC50 below the cut-off of 600 nM?
**A:** t

New cases:
**Q:** For Cc1ccccc1C#Cc1cc(C(N)=O)c(NC(N)=O)s1 , is the recorded IC50 below the cut-off of 600 nM?
**A:** f

**Q:** For NC(=O)Nc1sc(C#Cc2csc(CO)c2)cc1C(N)=O , is the recorded IC50 below the cut-off of 600 nM?
**A:** t

**Q:** For NC(=O)Nc1sc(C#Cc2cccc(NC(=O)C(F)(F)F)c2)cc1C(N)=O , is the recorded IC50 below the cut-off of 600 nM?
**A:** f

**Q:** For CS(=O)(=O)Nc1cccc(C#Cc2cc(C(N)=O)c(NC(N)=O)s2)c1 , is the recorded IC50 below the cut-off of 600 nM?
**A:** t

**Q:** For NC(=O)Nc1sc(C#Cc2cccc(NC(=O)c3ccncc3)c2)cc1C(N)=O , is the recorded IC50 below the cut-off of 600 nM?
**A:** f

**Q:** For CC(C)C(O)c1cc(C#Cc2cc(C(N)=O)c(NC(N)=O)s2)cs1 (configuration not stated) , is the recorded IC50 below the cut-off of 600 nM?
**A:** t

**Q:** For NC(=O)Nc1sc(C#Cc2ccccc2F)cc1C(N)=O , is the recorded IC50 below the cut-off of 600 nM?
**A:** f

**Q:** For NC(=O)Nc1sc(C#Cc2cccc(O)c2)cc1C(N)=O , is the recorded IC50 below the cut-off of 600 nM?
**A:** t

**Q:** For NC(=O)Nc1sc(C#CC2CC2)cc1C(N)=O , is the recorded IC50 below the cut-off of 600 nM?
**A:** t

**Q:** For NC(=O)Nc1sc(C#Cc2cccc(NC(=O)c3ccccc3)c2)cc1C(N)=O , is the recorded IC50 below the cut-off of 600 nM?
**A:** f

**Q:** For NC(=O)Nc1sc(C#Cc2cccc(NC(=O)c3cccnc3)c2)cc1C(N)=O , is the recorded IC50 below the cut-off of 600 nM?
**A:** t

**Q:** For NC(=O)Nc1sc(C#Cc2cccc(N)c2)cc1C(N)=O , is the recorded IC50 below the cut-off of 600 nM?
**A:** f

**Q:** For NC(=O)c1sc(-c2ccsc2)cc1N , is the recorded IC50 below the cut-off of 600 nM?
**A:** f

**Q:** For COC(=O)NCCC(=O)Nc1cccc(C#Cc2cc(C(N)=O)c(NC(N)=O)s2)c1 , is the recorded IC50 below the cut-off of 600 nM?
**A:** f

**Q:** For CC(=O)Nc1cccc(C#Cc2cc(C(N)=O)c(NC(N)=O)s2)c1 , is the recorded IC50 below the cut-off of 600 nM?
**A:** f
